TGT: ZmDRIK1-K217-S514 (Zea mays)
Construct: kinase domain, K217-S514
TEST: biochemical
CONDITION: read-out: dTm B, sheet ZmDRIK1-K217-S514;; DSF, Boltzmann fit, 0.1% DMSO
Entries annotated with measured ΔTm at 10 µM
VALUE KIND: ΔTm at 10 µM (°C)

> print(dat)
                  compound.structure.string  result.number
1  C[C@@H](Oc1cc(-n2cnc3ccc(CN4CCN(C)CC4)cc32)sc1C(N)=O)c1ccccc1C(F)(F)F          -0.15
2  C=CC(=O)Nc1ccc2ncnc(Nc3ccc(OCc4cccc(F)c4)c(Cl)c3)c2c1          -1.18
3  Oc1cccc(-c2nc(N3CCOCC3)c3oc4ncccc4c3n2)c1         -0.559
4  COc1cc2c(Oc3ccc4[nH]c(C)cc4c3F)ncnc2cc1OCCCN1CCCC1         -0.229
5  Nc1nc(Nc2ccc(S(N)(=O)=O)cc2)nn1C(=O)c1c(F)cccc1F         -0.319
6  COc1ccc2c(c1)c(C1=C(c3c[nH]c4ccccc34)C(=O)NC1=O)cn2CCCN(C)C         -0.364
7  CCc1cccc(CC)c1NC(=O)N1Cc2[nH]nc(NC(=O)c3ccc(N4CCN(C)CC4)cc3)c2C1         -0.247
8  NC(=O)c1cnc(N[C@@H]2CCCC[C@@H]2N)nc1Nc1cccc(-n2nccn2)c1         -0.551

====

TGT: ZmDRIK1-K217-P492 (Zea mays)
Construct: kinase domain, K217-P492
Sequence (C0P4K9 1-514): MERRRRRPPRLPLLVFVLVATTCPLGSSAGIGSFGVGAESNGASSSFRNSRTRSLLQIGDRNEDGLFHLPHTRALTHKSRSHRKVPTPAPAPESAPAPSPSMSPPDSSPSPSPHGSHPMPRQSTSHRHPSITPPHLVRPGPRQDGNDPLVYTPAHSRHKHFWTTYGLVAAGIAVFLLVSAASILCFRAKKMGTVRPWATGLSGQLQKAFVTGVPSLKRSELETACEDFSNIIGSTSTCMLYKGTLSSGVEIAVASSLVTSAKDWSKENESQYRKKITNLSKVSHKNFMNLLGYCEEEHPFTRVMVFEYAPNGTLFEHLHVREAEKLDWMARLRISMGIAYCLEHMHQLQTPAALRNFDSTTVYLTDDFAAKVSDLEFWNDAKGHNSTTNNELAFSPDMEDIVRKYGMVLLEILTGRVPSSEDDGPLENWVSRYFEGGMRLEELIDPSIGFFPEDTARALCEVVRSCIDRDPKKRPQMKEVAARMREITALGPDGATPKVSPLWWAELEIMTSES
TEST: biochemical
CONDITION: read-out: dTm B, sheet ZmDRIK1-K217-P492;; DSF, Boltzmann fit, 0.1% DMSO
Entries annotated with measured ΔTm at 10 µM
VALUE KIND: ΔTm at 10 µM (°C)

COMPOUND	RESULT NUMBER
COc1ccc(-c2ccc3ncc4c(c3c2)n(-c2ccc(N3CCNCC3)c(C(F)(F)F)c2)c(=O)n4C)cn1 [BGT226 (NVP-BGT226)]	-0.378
CO[C@H]1C[C@@H]2CC[C@@H](C)[C@@](O)(O2)C(=O)C(=O)N2CCCC[C@H]2C(=O)O[C@H]([C@H](C)C[C@@H]2CC[C@@H](OCCO)[C@H](OC)C2)CC(=O)[C@H](C)/C=C(\C)[C@@H](O)[C@@H](OC)C(=O)[C@H](C)C[C@H](C)/C=C/C=C/C=C/1C [Everolimus (RAD001)]	-1.22
CN(C)CCOc1ccc(-c2nc(-c3ccncc3)c(-c3ccc4c(c3)CC/C4=N\O)[nH]2)cc1 [SB590885]	-0.936

====

TGT: ZmDRIK1-K217-S514 (Zea mays, UniProt C0P4K9)
Construct: kinase domain, K217-S514
TEST: biochemical
CONDITION: read-out: dTm B, sheet ZmDRIK1-K217-S514;; DSF, Boltzmann fit, 0.1% DMSO
Counter-ions that a name gives are not always drawn.
VALUE KIND: ΔTm at 10 µM (°C)

> print(dat)
                                   molecule                                       tgt    value.kind  result.number
1  Cc1cc(NC(=O)c2cccc(NC(=O)/C=C/CN(C)C)c2)ccc1Nc1nccc(-c2cccnc2)n1 [JNK-IN-8]  ZmDRIK1-K217-S514 (Zea mays, UniProt C0P4K9)  ΔTm at 10 µM         -0.306
2  C#Cc1cccc(Nc2ncnc3cc(OCCOC)c(OCCOC)cc23)c1 [Erlotinib HCl (OSI-744)]  ZmDRIK1-K217-S514 (Zea mays, UniProt C0P4K9)  ΔTm at 10 µM         -0.264
3  FC(F)(F)c1ccc(/C=C/c2nc(COc3ccc(CCCCn4ccnn4)cc3)co2)cc1 [Mubritinib (TAK 165)]  ZmDRIK1-K217-S514 (Zea mays, UniProt C0P4K9)  ΔTm at 10 µM         -0.334
4  COc1ccc(Cl)cc1NC(=O)Nc1cc(C)nc2ccccc12 [PQ 401]  ZmDRIK1-K217-S514 (Zea mays, UniProt C0P4K9)  ΔTm at 10 µM         -0.394
5  CN[C@@H]1C[C@H]2O[C@@](C)([C@@H]1OC)n1c3ccccc3c3c4c(c5c6ccccc6n2c5c31)C(=O)NC4 [Staurosporine]  ZmDRIK1-K217-S514 (Zea mays, UniProt C0P4K9)  ΔTm at 10 µM         -0.232
6  CCC[C@H](NC(=O)/C(C#N)=C/c1cccc(Br)n1)c1ccccc1 [Degrasyn (WP1130)]  ZmDRIK1-K217-S514 (Zea mays, UniProt C0P4K9)  ΔTm at 10 µM          -3.28
7  O=C(NCc1cccc(O)c1)Nc1nc(-c2ccncc2)cs1 [RKI-1447]  ZmDRIK1-K217-S514 (Zea mays, UniProt C0P4K9)  ΔTm at 10 µM          -0.42
8  CC(C)n1nc(-c2ccc3oc(N)nc3c2)c2c(N)ncnc21 [INK 128 (MLN0128)]  ZmDRIK1-K217-S514 (Zea mays, UniProt C0P4K9)  ΔTm at 10 µM         -0.433

====

TGT: ZmDRIK1-R187-P492 (Zea mays, UniProt C0P4K9)
Construct: kinase domain, R187-P492
TEST: biochemical
CONDITION: read-out: dTm B, DSF, Boltzmann fit, 0.1% DMSO
Where a name gives a salt, the structure may show the parent alone.
Each record's ΔTm at 10 µM is compared with label 0: < -0.3 °C; label 1: ≥ -0.3 °C and < -0.08 °C; label 2: ≥ -0.08 °C to give its class.

> print(dat)
                                    compound                                       tgt  category.label
 1  O=C(NCCO)c1cccc(-c2cc(Nc3ccc(OC(F)(F)F)cc3)ncn2)c1  ZmDRIK1-R187-P492 (Zea mays, UniProt C0P4K9)         label 2
 2  COCCOc1ccc2c(c1)ncn2-c1ccc2cccc(N3CCC(N)CC3)c2n1  ZmDRIK1-R187-P492 (Zea mays, UniProt C0P4K9)         label 2
 3  COc1cc2ncnc(Oc3cccc(NC(=O)Nc4cc(C(C)(C)C(F)(F)F)on4)c3)c2cc1OC  ZmDRIK1-R187-P492 (Zea mays, UniProt C0P4K9)         label 0
 4  O=C(NCCCNc1nc(Nc2cccc(NC(=O)N3CCCC3)c2)ncc1I)c1cccs1  ZmDRIK1-R187-P492 (Zea mays, UniProt C0P4K9)         label 0
 5  Cn1cc(C2=C(c3ccc(Cl)cc3Cl)C(=O)NC2=O)c2ccccc21  ZmDRIK1-R187-P492 (Zea mays, UniProt C0P4K9)         label 1
 6  CCS(=O)(=O)c1cccc(-c2cc(C(=O)NC3CCN(C)CC3)c(C)c3[nH]c4ncc(C)cc4c23)c1  ZmDRIK1-R187-P492 (Zea mays, UniProt C0P4K9)         label 2
 7  COc1ccc(Cl)c(Nc2nc3ccccc3nc2NS(=O)(=O)c2cccc(NC(=O)C(C)(C)N)c2)c1  ZmDRIK1-R187-P492 (Zea mays, UniProt C0P4K9)         label 2
 8                        Cn1cnc(N)c2ncnc1-2  ZmDRIK1-R187-P492 (Zea mays, UniProt C0P4K9)         label 1
 9  O=c1cc(-c2cccc3c2Sc2ccccc2S3)oc(N2CCOCC2)c1  ZmDRIK1-R187-P492 (Zea mays, UniProt C0P4K9)         label 1
10  COc1ccc2cc(-c3nc(-c4ccc([S+](C)[O-])cc4)[nH]c3-c3ccncc3)ccc2c1 (stereo not drawn)  ZmDRIK1-R187-P492 (Zea mays, UniProt C0P4K9)         label 1
11  CS(=O)(=O)CCNCc1ccc(-c2ccc3ncnc(Nc4ccc(OCc5cccc(F)c5)c(Cl)c4)c3c2)o1 [Lapatinib (GW-572016) Ditosylate]  ZmDRIK1-R187-P492 (Zea mays, UniProt C0P4K9)         label 2
12  COc1ccc(CNC(=O)Nc2ncc([N+](=O)[O-])s2)cc1  ZmDRIK1-R187-P492 (Zea mays, UniProt C0P4K9)         label 1
13  Cc1[nH]c(/C=C2\C(=O)Nc3ccc(S(=O)(=O)Cc4c(Cl)cccc4Cl)cc32)c(C)c1C(=O)N1CCC[C@@H]1CN1CCCC1  ZmDRIK1-R187-P492 (Zea mays, UniProt C0P4K9)         label 0
14  COc1cc2nccc(Oc3ccc(NC(=O)Nc4ccc(F)cc4F)c(F)c3)c2cc1OC  ZmDRIK1-R187-P492 (Zea mays, UniProt C0P4K9)         label 0
15  O=S(=O)(c1cccc2cnccc12)N1CCCNCC1 [Fasudil (HA-1077) HCl]  ZmDRIK1-R187-P492 (Zea mays, UniProt C0P4K9)         label 2
16  Fc1cc(-c2cccc3ncc(-c4cnn(C5CCNCC5)c4)nc23)cc(F)c1CN1CCOCC1 [NVP-BSK805 2HCl]  ZmDRIK1-R187-P492 (Zea mays, UniProt C0P4K9)         label 1
17  CN1CCN(CCOc2cc(OC3CCOCC3)c3c(Nc4c(Cl)ccc5c4OCO5)ncnc3c2)CC1  ZmDRIK1-R187-P492 (Zea mays, UniProt C0P4K9)         label 1
18  Cc1cc([C@@H](C)Nc2ccccc2C(=O)O)c2nc(N3CCOCC3)cc(=O)n2c1  ZmDRIK1-R187-P492 (Zea mays, UniProt C0P4K9)         label 1
19  O=C(c1cccc(Cl)c1F)N1CCN(Cc2cccc(Nc3nccs3)n2)CC1  ZmDRIK1-R187-P492 (Zea mays, UniProt C0P4K9)         label 2
20  Nc1cccc(-c2cc3c(Oc4cccc(O)c4)ncnc3[nH]2)c1  ZmDRIK1-R187-P492 (Zea mays, UniProt C0P4K9)         label 2
21        COc1cc2ncnc(Nc3ccc(Cl)cc3F)c2cc1OC  ZmDRIK1-R187-P492 (Zea mays, UniProt C0P4K9)         label 0
22  Cc1ccccc1-n1c(Cn2ncc3c(N)ncnc32)nc2cccc(C)c2c1=O  ZmDRIK1-R187-P492 (Zea mays, UniProt C0P4K9)         label 0
23  CS(=O)(=O)N1CCN(Cc2cc3nc(-c4cccc5[nH]ncc45)nc(N4CCOCC4)c3s2)CC1  ZmDRIK1-R187-P492 (Zea mays, UniProt C0P4K9)         label 1
24  Cn1c(=O)c(F)c(Nc2ccc(I)cc2F)c2c(=O)n(C[C@@H](O)CO)cnc21  ZmDRIK1-R187-P492 (Zea mays, UniProt C0P4K9)         label 0
25  C=CC(=O)Nc1cccc(Oc2nc(Nc3ccc(N4CCN(C)CC4)cc3)ncc2Cl)c1  ZmDRIK1-R187-P492 (Zea mays, UniProt C0P4K9)         label 2
26  Cn1cc(-c2cnn3c(N)c(Br)c([C@@H]4CCCNC4)nc23)cn1 [MK-8776 (SCH 900776)]  ZmDRIK1-R187-P492 (Zea mays, UniProt C0P4K9)         label 1
27  CC(C)(C)Cn1c(N)nc2ccc(-c3[nH]c(C(C)(C)C)nc3-c3ccc(F)cc3)nc21  ZmDRIK1-R187-P492 (Zea mays, UniProt C0P4K9)         label 1
28  CN(C)c1ccc(-c2nc3ncc(Cl)c(N4CCN(CC(=O)Nc5nccs5)CC4)c3[nH]2)cc1  ZmDRIK1-R187-P492 (Zea mays, UniProt C0P4K9)         label 0
29  N[C@@H]1CCCN(c2c(/C=C3\SC(=O)NC3=O)cccc2-c2ccccc2)C1  ZmDRIK1-R187-P492 (Zea mays, UniProt C0P4K9)         label 1
30  CC[C@H](Nc1ncnc2[nH]cnc12)c1nc2cccc(F)c2c(=O)n1-c1ccccc1  ZmDRIK1-R187-P492 (Zea mays, UniProt C0P4K9)         label 0
31  CCn1c2ccccc2c2cc(Nc3ccnc(NCCCN4CCOCC4)n3)ccc21  ZmDRIK1-R187-P492 (Zea mays, UniProt C0P4K9)         label 1
